# SYSTEM UNDER TEST: EGFR^wt-TK (Homo sapiens, UniProt P00533)
# Construct: purchased Sino Biology Inc
# Sequence (P00533 25-1210): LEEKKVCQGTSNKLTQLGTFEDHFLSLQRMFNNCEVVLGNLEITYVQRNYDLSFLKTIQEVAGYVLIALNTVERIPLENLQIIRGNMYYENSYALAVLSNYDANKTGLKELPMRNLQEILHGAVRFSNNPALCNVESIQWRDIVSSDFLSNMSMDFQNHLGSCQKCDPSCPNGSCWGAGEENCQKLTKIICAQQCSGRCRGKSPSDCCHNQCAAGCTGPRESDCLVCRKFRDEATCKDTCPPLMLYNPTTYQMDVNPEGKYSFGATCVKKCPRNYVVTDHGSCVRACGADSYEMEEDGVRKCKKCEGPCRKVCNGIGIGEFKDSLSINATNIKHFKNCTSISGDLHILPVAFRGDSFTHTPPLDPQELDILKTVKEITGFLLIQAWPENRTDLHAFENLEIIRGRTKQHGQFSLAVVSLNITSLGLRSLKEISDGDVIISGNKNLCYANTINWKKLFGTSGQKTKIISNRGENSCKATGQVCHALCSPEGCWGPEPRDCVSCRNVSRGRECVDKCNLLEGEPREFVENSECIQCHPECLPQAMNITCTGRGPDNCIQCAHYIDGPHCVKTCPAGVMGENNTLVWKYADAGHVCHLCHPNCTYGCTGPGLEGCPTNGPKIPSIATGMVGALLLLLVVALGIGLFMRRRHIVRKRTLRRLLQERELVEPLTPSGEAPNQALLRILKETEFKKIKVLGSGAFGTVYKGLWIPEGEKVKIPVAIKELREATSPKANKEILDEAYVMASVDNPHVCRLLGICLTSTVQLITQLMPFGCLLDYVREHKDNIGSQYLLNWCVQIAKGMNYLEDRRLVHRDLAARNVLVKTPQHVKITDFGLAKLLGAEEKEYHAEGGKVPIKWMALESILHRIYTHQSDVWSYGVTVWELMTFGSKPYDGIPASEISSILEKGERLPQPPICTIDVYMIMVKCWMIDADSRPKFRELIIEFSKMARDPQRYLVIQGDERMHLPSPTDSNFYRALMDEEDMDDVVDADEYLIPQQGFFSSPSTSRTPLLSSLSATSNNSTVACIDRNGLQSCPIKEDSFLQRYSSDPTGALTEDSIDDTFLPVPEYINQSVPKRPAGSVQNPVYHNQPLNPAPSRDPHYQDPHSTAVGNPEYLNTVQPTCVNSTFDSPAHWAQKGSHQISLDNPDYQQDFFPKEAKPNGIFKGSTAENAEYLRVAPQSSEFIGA
# RUN DESCRIPTION: In vitro EGFR^wt-TK assay (ELISA with recombinant EGFR)
# Assay type: biochemical
# MEASUREMENT CONDITIONS: 1 μM; mean ± SD of three replicates; read-out: EGFR^wt-TK inhibition rate (%, 1 μM)
Kindly return T if reported inhibition at 1 µM is no lower than 50%; return F if it is lower.

{"MOLECULE": "Cn1c(COc2ccc(/C=N/c3ccc(F)c(F)c3)cc2)nc2ccccc2c1=O", "CLASS NAME": "T"}

Is inhibition at 1 µM for Cn1c(COc2ccc(/C=N/c3ccc(F)cc3)cc2)nc2ccccc2c1=O at or above 50%? T

Is inhibition at 1 µM for Cn1c(COc2ccc(/C=N/c3c(F)cccc3F)cc2)nc2ccccc2c1=O at or above 50%? F

Is inhibition at 1 µM for COc1ccc(/N=C/c2ccc(OCc3nc4ccccc4c(=O)n3C)cc2)cc1 at or above 50%? T

Is inhibition at 1 µM for Cn1c(COc2ccc(/C=N/c3ccc(F)cc3F)cc2)nc2ccccc2c1=O at or above 50%? F
